# maps each entry to its TGI
# Tested on: SK-MEL-2 melanoma
# measurement.protocol: NCI tumour cell line growth inhibition, 48 h
State just the number; it will be interpreted in µM.

Solved cases below.
Cc1ccc2nc3ccccc3c(NCc3ccccc3)c2c1 : 16
Cn1ccnc1C(=O)/C=C/c1ccc(C(=O)Nc2ccccc2F)cc1 : 28.1
O=C(Nc1ccc(Cl)cc1)Oc1ccc(C(=S)Nc2ccc(Br)cc2)cc1 : 27.7

Now look at this one.
Query :: Tell me measured TGI for CCOC(=O)C(C(N)=O)c1nc2cc([N+](=O)[O-])ccc2nc1/C=C(\O)c1ccccc1 (stereo not given) please.
Result :: 30.4

---

# Test system: SN12C renal
# measurement.protocol: NCI tumour cell line growth inhibition, 48 h
parameter: TGI (nM)
Give the value in nM but do not write nM after it.

NCCOc1ncccc1/C=C1\C2C=CC=CC2C2C=CC(F)=CC12 (centres undefined) : 1350

Next, consider the following compound.
Query :: Return TGI for the following compound: CCCCCC/C=C\CCCCCCCCCc1cc(O)cc(OC)c1O
Result :: 1500

---

# System: SN12C renal
# measurement.protocol: NCI tumour cell line growth inhibition, 48 h
A collection of compounds and their measured TGI

Illustrative cases are given below, each with its answer.
CCOC(=O)C1N(S(=O)(=O)c2ccc(C)cc2)CCC12C(c1ccc(OC)c(OC)c1)=Nc1ccccc12 (configuration not stated) : > 100 µM
CC#C[C@@]1(O)CCCCC1O (some centres not stated) : > 100 µM
NCc1ccc(O)c(O)c1 : > 100 µM
C=C1CC(c2ccc(O)c(OC)c2)Oc2c(OC)cccc21 (configuration not stated) : > 100 µM
O=S(=O)(/N=C(\NO)Nc1ccc(Cl)cc1)c1cc2ccccc2o1 : 36.1 µM

Query :: Name the value of TGI reported for CCOC(=O)C(=O)Nc1cccc(Cl)c1C when tested on SN12C renal.
Result :: > 100 µM

Query :: Enter measured TGI, system SN12C renal, for the compound shown: Cc1ccncc1N1CCN(c2ccnc(Cl)c2)C1=O
Result :: > 100 µM

Query :: Output reported TGI of the compound CC(=O)CC1(O)C(=O)c2c(Br)sc(Br)c2C1=O on SN12C renal.
Result :: 35.4 µM

Query :: With SN12C renal as the test system, provide measured TGI for this compound: O=C1NC(=O)C2C1c1[nH]c3ccccc3c1C1CCCC12 (configuration not stated)
Result :: > 100 µM

Query :: Check SN12C renal data and give TGI for CSC1C=C(C(C)C)CCC1(C)SC (configuration not stated) .
Result :: 30.6 µM

Query :: Report TGI on SN12C renal for this entry: COC1OC(C)C(OC(=O)C(C)(C)C)C(OS(=O)(=O)c2ccc(C)cc2)C1OS(=O)(=O)c1ccc(C)cc1 (configuration not stated)
Result :: > 100 µM

Query :: Fill in: TGI on SN12C renal, entry Cc1ccc(N=Nc2c(O)c(S(=O)(=O)O)cc3cc(S(=O)(=O)O)ccc23)c(C)c1
Result :: > 100 µM

---

Readings of TGI for the listed compounds
# Tested on: SNB-78 CNS
# measurement.protocol: NCI tumour cell line growth inhibition, 48 h

The following compounds have reported results that may help.
NCCSCC(N)C(=O)O (stereo not drawn) : > 497 µM
CC(O)C(C(=O)O)N(CC1(O)OCC(O)C(O)C1O)N=O (stereo not drawn) : > 100 µM
c1ccc(C2=NOC3COc4ccccc4OCC23)cc1 (stereo not drawn) : > 100 µM

Query :: Identify the reported TGI for the following entry. C/C1=C/C2OC(=O)C3(C)C2C(CC2(C)OC1=CC2=O)OC3(O)C(C)C (stereo not drawn)
Result :: > 100 µM

Query :: Give TGI for the following compound: CCOC(OC1=CCCC1)C(C)[Se]c1ccccc1 (stereo not drawn)
Result :: > 100 µM

Query :: // Input: N#CC1Sc2ccccc2-n2cccc21 (stereo not drawn) . Output its TGI only.
Result :: > 100 µM

Query :: Could you please provide reported TGI for CC1(SCC(N)C(=O)O)CC(=O)NC1=O (stereo not drawn) ? Thanks!
Result :: > 100 µM

Query :: Determine from records and report TGI for CCOC(=O)c1cnc2oc(-c3ccc(OC)cc3)nn2c1=O
Result :: > 100 µM

Query :: Supply TGI value. Item: Cc1cc(=O)[nH]c(NN2C(Cl)C(=O)C2c2ccc(O)cc2)n1 (stereo not drawn)
Result :: 24.2 µM

Query :: Fill in reported TGI for this entry: CSC1C=C(C(C)C)CCC1(C)SC (stereo not drawn)
Result :: 32.3 µM

Query :: Return TGI for the following compound: O=C(/C=C/c1ccccc1O)C(c1ccccc1)c1ccccc1
Result :: > 100 µM

Query :: Please give the documented TGI of COc1nc(NC2OCC(O)C(O)C2O)c(NC2OCC(O)C(O)C2O)c(=O)n1C (stereo not drawn)
Result :: > 100 µM

Query :: Return value of TGI for input CC#C[C@@]1(O)CCCCC1O (stereo partly drawn) , no commentary.
Result :: > 100 µM
